testProtocol: chemical genetic growth profiling, strain panel (AID 1159580);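 further: tested at 20 µM; growth read once vehicle control cultures reached saturation at 30 °C; 1 = growth at the plate median or of vehicle wells; lower values mean less growth of the strain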
testParameters: S. cerevisiae deletion strains, growth OD, locus YJL168C, strain set2, stronger effect = lower value
Among all 5,500 compounds or so, about 2,000 (36%) were called active. Not shown: some 18% with an inconclusive outcome. Some of the results follow. Where a SMILES comes first, the peptide text is derived from it. Bridges are numbered along the chain shown (N, C = ends). [ ]: non-standard residue; d: D form. The star is where a group is joined. ξ: configuration not given here. ξDab(CH2SO3H) = NC(CCNCS(=O)(=O)O)C(=O)O; Heptanoyl(6-Me) = CC(C)CCCCC(=O)*; Dab = NCC[CH](N)C(=O)O
# normalized growth values compiled below
API doc: respond with a numeric literal and nothing else, no unit.

Clc1ccccc1C(c1ccccc1)(c1ccccc1)n1ccnc1: 0.0596
O=C(COc1ccc(Cl)cc1)N1CCN(Cc2ccc3c(c2)OCO3)CC1: 0.98
CCC(C)C1NC(=O)C(CCNCS(=O)(=O)O)NC(=O)C(NC(=O)C(CCNCS(=O)(=O)O)NC(=O)C(NC(=O)C(CCNCS(=O)(=O)O)NC(=O)CCCCC(C)C)C(C)O)CCNC(=O)C(C(C)O)NC(=O)C(CCNCS(=O)(=O)O)NC(=O)C(CCNCS(=O)(=O)O)NC(=O)C(C(C)CC)NC1=O (stereo not given) ({Heptanoyl(6-Me)}-[ξDab(CH2SO3H)]T[ξDab(CH2SO3H)][Dab][ξDab(CH2SO3H)]II[ξDab(CH2SO3H)][ξDab(CH2SO3H)]T; lactam 4-C; configuration not given here): 0.966
CO[C@@]12[C@@H]3NC3CN1C1=C(C(=O)C(N)=C(C)C1=O)[C@@H]2COC(N)=O (stereo not given in full): 0.983
Fc1ccc(C(c2ccccc2)(c2ccccc2F)n2ccnc2)cc1 (stereo not given): 0.0832

Kindly consider the entry below.
Problem: normalized growth lookup needed for "Nc1ccc(S(=O)(=O)c2ccc(N)cc2)cc1" , thanks.
Solution: 0.996
